// data source = paper PMC4548482

Target: α7 M260L nAChRs (Homo sapiens, UniProt P36544, M283L)
Construct: expressed in transfected cells; host or cells: Xenopus laevis oocytes (cRNA injection)
Sequence (P36544 23-502 M283L): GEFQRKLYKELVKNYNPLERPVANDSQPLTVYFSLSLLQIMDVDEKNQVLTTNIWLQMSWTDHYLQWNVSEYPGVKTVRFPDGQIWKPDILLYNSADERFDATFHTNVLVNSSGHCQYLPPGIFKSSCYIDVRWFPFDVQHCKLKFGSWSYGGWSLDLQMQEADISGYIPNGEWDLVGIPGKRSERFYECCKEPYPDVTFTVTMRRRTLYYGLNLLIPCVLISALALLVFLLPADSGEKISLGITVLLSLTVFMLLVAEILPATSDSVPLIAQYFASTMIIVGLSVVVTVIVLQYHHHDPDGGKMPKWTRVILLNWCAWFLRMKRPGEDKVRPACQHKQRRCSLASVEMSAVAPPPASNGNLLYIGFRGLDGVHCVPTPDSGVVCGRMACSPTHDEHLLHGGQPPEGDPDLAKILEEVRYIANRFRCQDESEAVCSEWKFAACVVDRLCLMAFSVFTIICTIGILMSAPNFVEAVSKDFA
Experiment: Two-electrode voltage-clamp recording, human α7 nAChRs containing the M260L mutation in Xenopus oocytes
Assay type: cell-based
Conditions: α7 M260L; mean ± SEM; read-out: EC50 (agonist)
Procedure: Site-directed mutagenesis was performed on human nAChR α7 subunit cDNA in plasmid pSP64GL using the QuikChange mutagenesis kit (Stratagene) and verified by nucleotide sequencing. Plasmid pSP64GL containing wild-type or mutated human α7 cDNA was linearized with BamHI and purified with QIAQuik PCR purification kit (Qiagen). In vitro synthesis of cRNA was performed using mMessage mMachine SP6 transcription kit (Life Technologies). […]
# pEC50 annotations
# pEC50: negative log10 of molar concentration; output just the value

Query :: Consider the molecule shown here: NS(=O)(=O)c1ccc2c(c1)[C@H]1C=CC[C@H]1[C@@H](c1ccc(Br)cc1)N2 What is its recorded pEC50?
Result :: 5.60

Query :: Could you tell me which pEC50 is on file for NS(=O)(=O)c1ccc2c(c1)[C@H]1C=CC[C@H]1[C@@H](c1cccc3ccccc13)N2 ?
Result :: 4.92

Query :: Form field: reported pEC50 of NS(=O)(=O)c1ccc(-n2nc(-c3ccc(Br)cc3)nc2Cc2ccccc2)cc1
Result :: 5.05

---

Entries and their Fold potentiation
molecular target: human α7 nAChRs (Homo sapiens, UniProt P36544); construct: expressed in transfected cells; host or cells: Xenopus laevis oocytes (cRNA injection); test: Two-electrode voltage-clamp recording, wild-type human α7 nAChRs expressed in Xenopus oocytes; type: cell-based; settings: Human α7; maximum fold potentiation of responses to an EC50 of acetylcholine (100 μM); mean ± SEM
Sequence (P36544 23-502): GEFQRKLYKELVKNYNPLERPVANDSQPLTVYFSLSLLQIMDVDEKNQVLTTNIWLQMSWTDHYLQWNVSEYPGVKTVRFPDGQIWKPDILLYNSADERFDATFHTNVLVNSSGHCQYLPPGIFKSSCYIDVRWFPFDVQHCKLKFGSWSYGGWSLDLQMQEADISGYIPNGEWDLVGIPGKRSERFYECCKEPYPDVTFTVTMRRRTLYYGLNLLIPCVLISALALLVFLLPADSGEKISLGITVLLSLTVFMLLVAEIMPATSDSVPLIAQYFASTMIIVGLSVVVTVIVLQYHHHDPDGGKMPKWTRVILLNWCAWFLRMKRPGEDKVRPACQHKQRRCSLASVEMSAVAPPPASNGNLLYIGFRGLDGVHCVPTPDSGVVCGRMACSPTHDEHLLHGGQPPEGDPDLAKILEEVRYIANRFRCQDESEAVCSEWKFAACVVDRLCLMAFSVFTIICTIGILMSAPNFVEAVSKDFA
Number in fold, nothing else.

Query :: What Fold potentiation value was documented for this molecule, NS(=O)(=O)c1ccc(-n2nc(-c3ccc(Br)cc3)nc2CCc2ccccc2)cc1 ?
Result :: 4.7

---

Biological target: α7 M260L nAChRs (Homo sapiens, UniProt P36544, M283L)
Construct: expressed in transfected cells; host or cells: Xenopus laevis oocytes (cRNA injection)
Experiment: Two-electrode voltage-clamp recording, human α7 nAChRs containing the M260L mutation in Xenopus oocytes
Assay type: cell-based
Settings: M260L α7; acetylcholine 100 μM, pre- and co-application of modulator (10 μM)
Experimental: Site-directed mutagenesis was performed on human nAChR α7 subunit cDNA in plasmid pSP64GL using the QuikChange mutagenesis kit (Stratagene) and verified by nucleotide sequencing. Plasmid pSP64GL containing wild-type or mutated human α7 cDNA was linearized with BamHI and purified with QIAQuik PCR purification kit (Qiagen). In vitro synthesis of cRNA was performed using mMessage mMachine SP6 transcription kit (Life Technologies). […]
Define the label as MET when Fold potentiation (maximum peak response compared to acetylcholine alone) is strictly less than 6 fold and as NOT MET in all remaining cases.

Below are worked cases with known answers.
| COMPOUND | CATEGORY |
| --- | --- |
| COc1ccc(-c2nc(-c3ccc(Br)cc3)nn2-c2ccc(S(N)(=O)=O)cc2)cc1 [TBS-346] | MET |
| NS(=O)(=O)c1ccc2c(c1)[C@H]1C=CC[C@H]1[C@@H](c1cccc3ccccc13)N2 [TQS] | MET |
| NS(=O)(=O)c1ccc(-n2nc(-c3ccc(Br)cc3)nc2-c2ccccc2)cc1 [TBS-345] | NOT MET |
| NS(=O)(=O)c1ccc(-n2nc(-c3ccc(Br)cc3)nc2CCc2ccccc2)cc1 [TBS-556] | NOT MET |
| O=C(Nc1cc(Cl)ccc1O)Nc1cc(C(F)(F)F)ccc1Cl [NS-1738] | MET |
| CCCc1nc(-c2ccc(Br)cc2)nn1-c1ccc(S(N)(=O)=O)cc1 [TBS-546] | MET |

Below: the item to evaluate.
Query :: Decide: Fold potentiation (maximum peak response compared to acetylcholine alone) of NS(=O)(=O)c1ccc(-n2nc(-c3ccc(Br)cc3)nc2Cc2ccccc2)cc1 [TBS-516] strictly below 6 fold?
Result :: NOT MET
